Molecular target: JNK3 (Homo sapiens, UniProt P53779)
Sequence (P53779 whole entry): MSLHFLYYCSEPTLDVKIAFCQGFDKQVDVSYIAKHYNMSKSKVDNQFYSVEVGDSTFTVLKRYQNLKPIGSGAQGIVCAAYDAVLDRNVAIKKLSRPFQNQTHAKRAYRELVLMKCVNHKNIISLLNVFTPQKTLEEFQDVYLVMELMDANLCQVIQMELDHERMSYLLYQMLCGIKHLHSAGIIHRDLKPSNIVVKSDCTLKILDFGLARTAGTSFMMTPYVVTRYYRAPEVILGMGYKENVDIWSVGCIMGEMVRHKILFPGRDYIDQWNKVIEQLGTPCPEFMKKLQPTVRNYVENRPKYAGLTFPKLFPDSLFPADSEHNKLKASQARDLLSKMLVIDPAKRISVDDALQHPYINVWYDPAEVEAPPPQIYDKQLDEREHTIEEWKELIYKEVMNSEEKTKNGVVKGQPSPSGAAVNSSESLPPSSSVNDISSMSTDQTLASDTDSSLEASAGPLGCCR
pIC50: −log10 of the molar value.
VALUE_TYPE: pIC50

[a] CCCCCCCCCCCc1cc(O)cc(O)c1C(=O)OC(CCC)CCCCCCCc1cc(O)cc(O)c1 (centres unmarked) [Spinosulfate B]
[b] CCCCCCCCCCCc1cc(O)cc(O)c1C(=O)OC(CCC)CCCCCCCc1cc(OS(=O)(=O)O)cc(OS(=O)(=O)O)c1 (centres unmarked) [Spinosulfate A]
QUERY: I'd appreciate it if you could identify which of a and b has the greater pIC50. Answer by stating the label of the chosen item.
RESULT: b

Value source: patent US7112608B2
